methodDescription: Selectivity ratio of Ki for CB1 receptor to Ki for CB2 receptor
measurementType: Ratio Ki

CCCCCOc1c(OC)ccc2cc(C(=O)NCCc3ccc(Cl)cc3)c(=O)[nH]c12 > 1070
CCCCCOc1c(OC)ccc2cc(C(=O)NCCCc3ccccc3)c(Cl)nc12 > 9.36
CCCCCOc1c(OC)ccc2cc(C(=O)NCCc3ccccc3)c(Cl)nc12 > 20.1
CCCCCOc1c(OC)ccc2cc(C(=O)NCCc3ccc(OC)cc3)c(Cl)nc12 > 7.51
CCCCCOc1c(OC)ccc2cc(C(=O)NCCc3ccccc3)c(=O)[nH]c12 28.3
CCCCCOc1c(OC)ccc2cc(C(=O)NCCc3ccc(F)cc3)c(=O)[nH]c12 > 1850

Please look at the following compound next.
Task: Fill blank: measured Ratio Ki of the compound "CCCCCOc1c(OC)ccc2cc(C(=O)NCCCc3ccccc3)c(=O)[nH]c12" is ____.
Output: 31.3

// provenance: ChEMBL document CHEMBL1157654
